Source of measurements: paper PMC12406204

Each item that follows carries a reported pEC50.
target: CB1R (Homo sapiens); test: CB1R Gi protein-mediated cAMP inhibition assay
FYI, pEC50 means -log10 of a concentration in mol per litre.

> print(dat)
                                   molecule  assayvalue
1  NC(=O)[C@@H]1CCCCN1C(=O)c1nn(Cc2ccc(F)cc2)c2ccccc12 [18o]        5.97

Please examine the following record next.
[ask] Form field: reported pEC50 of NC(=O)[C@H]1CCCCN1C(=O)c1nn(Cc2ccc(F)cc2)c2ccccc12 [18p]
[reply] 6.12

###

Each item that follows carries a reported Ki.
target: CB1R (Homo sapiens, UniProt P21554); experiment: CB1R radioligand binding competition ([3H]CP55,940); parameters: host or cells: CHO-CB1 C3 cell line; conditions: displacement of [3H]CP 55,940, membranes of CHO-CB1 C3 cells, n = 3
Sequence (P21554 whole entry): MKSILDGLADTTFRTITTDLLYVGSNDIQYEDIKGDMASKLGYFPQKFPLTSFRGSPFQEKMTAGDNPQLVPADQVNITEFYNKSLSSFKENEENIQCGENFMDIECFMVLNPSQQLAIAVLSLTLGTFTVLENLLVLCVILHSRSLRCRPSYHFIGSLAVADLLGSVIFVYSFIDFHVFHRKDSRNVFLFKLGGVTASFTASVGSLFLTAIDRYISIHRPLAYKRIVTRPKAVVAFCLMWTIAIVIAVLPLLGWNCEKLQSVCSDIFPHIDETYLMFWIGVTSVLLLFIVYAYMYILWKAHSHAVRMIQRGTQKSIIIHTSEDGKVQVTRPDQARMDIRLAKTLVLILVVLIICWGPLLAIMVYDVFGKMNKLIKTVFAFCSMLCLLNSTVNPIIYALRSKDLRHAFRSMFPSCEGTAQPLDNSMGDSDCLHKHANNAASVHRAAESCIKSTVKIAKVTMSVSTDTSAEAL
Express your answer in nM, writing the number without its unit.

Worked examples follow.
> print(dat)
                                    compound  assayvalue
 1  COC(=O)[C@@H]1CCCN1C(=O)c1cn(CC2CCCCC2)c2ccccc12 [15e]        11.3
 2  COC(=O)[C@@H]1CCCCN1C(=O)c1nn(Cc2ccc(F)cc2)c2ccccc12 [16o]        65.4
 3  COC(=O)[C@@H]1CCCN1C(=O)c1nn(CCCCCF)c2ccccc12 [15k]         173
 4  CCc1c(C(=O)NN2CCCCC2)nn(-c2ccc(Cl)cc2Cl)c1-c1ccc(Br)cc1 [Surinabant, reference compound]           3
 5  CCCCCn1nc(C(=O)N2CCCC[C@H]2C(=O)OC)c2ccccc21 [16i]         685
 6  COC(=O)[C@@H]1CCCN1C(=O)c1cn(CCCCCF)c2ccccc12 [15c]        55.9
 7  COC(=O)[C@@H]1CCCN1C(=O)c1nn(CC2CCCCC2)c2ccccc12 [15m]        73.4
 8  COC(=O)[C@@H]1CCCCN1C(=O)c1cn(Cc2ccc(F)cc2)c2ccccc12 [16g]        90.3
 9  COC(=O)[C@@H]1CCCCN1C(=O)c1nn(CC2CCCCC2)c2ccccc12 [16m]         162
10  COC(=O)[C@@H]1CCCN1C(=O)c1nn(Cc2ccc(F)cc2)c2ccccc12 [15o]        46.2

[ask] Form field: reported Ki of CCCCCn1cc(C(=O)N2CCC[C@H]2C(=O)OC)c2ccccc21 [15a]
[reply] 121

[ask] Would you mind doing COC(=O)[C@@H]1CCCN1C(=O)c1cn(Cc2ccc(F)cc2)c2ccccc12 [15g] as well?
[reply] 14.4

[ask] Would you mind doing COC(=O)[C@@H]1CCCCN1C(=O)c1nn(CCCCCF)c2ccccc12 [16k] as well?
[reply] 392

[ask] Would you mind doing CCCCCn1cc(C(=O)N2CCCC[C@H]2C(=O)OC)c2ccccc21 [16a] as well?
[reply] 644

[ask] Would you mind doing COC(=O)[C@@H]1CCCCN1C(=O)c1cn(CC2CCCCC2)c2ccccc12 [16e] as well?
[reply] 122

[ask] Would you mind doing COc1ccc2c(c1)c(CCN1CCOCC1)c(C)n2C(=O)c1cccc(Cl)c1Cl [GW405833, reference compound] as well?
[reply] 4770

[ask] Would you mind doing CCCCCn1nc(C(=O)N2CCC[C@H]2C(=O)OC)c2ccccc21 [15i] as well?
[reply] 337

[ask] Would you mind doing COC(=O)[C@@H]1CCCCN1C(=O)c1cn(CCCCCF)c2ccccc12 [16c] as well?
[reply] 716

###

Each item that follows carries a reported SI Ki CB1R/Ki CB2R.
target: CB2R (Homo sapiens); assay: CB2R radioligand binding competition ([3H]CP55,940); set-up: expressed in transfected cells; host or cells: HEK-293T (HEK-CB2 cell line); conditions: selectivity index, affinity ratio
Sequence (P34972 whole entry): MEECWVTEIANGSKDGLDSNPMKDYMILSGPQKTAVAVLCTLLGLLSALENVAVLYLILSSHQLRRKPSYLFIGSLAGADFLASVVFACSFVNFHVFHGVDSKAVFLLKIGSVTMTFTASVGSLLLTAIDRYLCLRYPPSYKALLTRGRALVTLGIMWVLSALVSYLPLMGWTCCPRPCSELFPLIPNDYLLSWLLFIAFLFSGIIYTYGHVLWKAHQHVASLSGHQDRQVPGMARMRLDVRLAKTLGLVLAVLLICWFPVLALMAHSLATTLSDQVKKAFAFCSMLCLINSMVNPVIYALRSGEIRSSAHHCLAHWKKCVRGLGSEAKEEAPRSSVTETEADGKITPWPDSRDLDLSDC
Please respond with just the number, no unit label.

> print(dat)
                                   molecule  assayvalue
1  COC(=O)[C@@H]1CCCCN1C(=O)c1cn(CC2CCCCC2)c2ccccc12 [16e]           3

Please examine the following record next.
[ask] Form field: reported SI Ki CB1R/Ki CB2R of COC(=O)[C@@H]1CCCN1C(=O)c1cn(CC2CCCCC2)c2ccccc12 [15e]
[reply] 0.3

###

assay: Human microsomal stability; assay type: in vitro ADME; settings: human, liver microsomes, pH 7.4; read-out: microsomal stability t1/2
Each item that follows carries a reported half-life.
Express your answer in min, writing the number without its unit.

> print(dat)
                                   compound   quantity  assayvalue
1  NC(=O)[C@@H]1CCCCN1C(=O)c1nn(Cc2ccc(F)cc2)c2ccccc12 [18o]  half-life        50.9

Please examine the following record next.
[ask] Form field: reported half-life of NC(=O)[C@@H]1CCCCN1C(=O)c1cn(CC2CCCCC2)c2ccccc12 [18e]
[reply] 19.4

###

experiment: Mouse microsomal stability; format: in vitro ADME; settings: mouse, microsomes, pH 7.4
Each item that follows carries a reported microsomal CLint.
Express your answer in µL/min/mg, writing the number without its unit.

> print(dat)
                                   molecule          quantity  assayvalue
1  NC(=O)[C@@H]1CCCCN1C(=O)c1nn(Cc2ccc(F)cc2)c2ccccc12 [18o]  microsomal CLint        26.1

[ask] Form field: reported microsomal CLint of NC(=O)[C@@H]1CCCCN1C(=O)c1cn(CC2CCCCC2)c2ccccc12 [18e]
[reply] 54.3

###

Each item that follows carries a reported Ki.
molecular target: CB2R (Homo sapiens); assay: CB2R radioligand binding competition ([3H]CP55,940); parameters: expressed in transfected cells; host or cells: HEK-293T (HEK-CB2 cell line); settings: displacement of [3H]CP 55,940, membranes of HEK-293T cells, n = 3
Express your answer in nM, writing the number without its unit.

> print(dat)
                                   compound        subjectoftest  assayvalue
1  CCCCCn1nc(C(=O)N2CCCC[C@H]2C(=O)OC)c2ccccc21 [16i]  CB2R (Homo sapiens)        10.9
2  COC(=O)[C@@H]1CCCN1C(=O)c1cn(Cc2ccc(F)cc2)c2ccccc12 [15g]  CB2R (Homo sapiens)        47.7
3  NC(=O)[C@@H]1CCCCN1C(=O)c1nn(CC2CCCCC2)c2ccccc12 [18m]  CB2R (Homo sapiens)        59.5
4  NC(=O)[C@@H]1CCCCN1C(=O)c1cn(CC2CCCCC2)c2ccccc12 [18e]  CB2R (Homo sapiens)        30.2

[ask] Form field: reported Ki of COC(=O)[C@@H]1CCCCN1C(=O)c1cn(Cc2ccc(F)cc2)c2ccccc12 [16g]
[reply] 22.5

[ask] Would you mind doing COC(=O)[C@H]1CCCN1C(=O)c1nn(Cc2ccc(F)cc2)c2ccccc12 [15p] as well?
[reply] 157

[ask] Would you mind doing NC(=O)[C@H]1CCCCN1C(=O)c1cn(CCCCCF)c2ccccc12 [18d] as well?
[reply] 169

[ask] Would you mind doing COC(=O)[C@@H]1CCCCN1C(=O)c1cn(CC2CCCCC2)c2ccccc12 [16e] as well?
[reply] 45.1

[ask] Would you mind doing COC(=O)[C@H]1CCCN1C(=O)c1cn(CC2CCCCC2)c2ccccc12 [15f] as well?
[reply] 463

###

target: P-glycoprotein (P-gp) (Homo sapiens, UniProt P08183); assay: P-gp interaction, Calcein-AM experiment; type: cell-based; details: probe Calcein-AM (2.5 μM); at 1 μM as printed in text
Sequence (P08183 whole entry): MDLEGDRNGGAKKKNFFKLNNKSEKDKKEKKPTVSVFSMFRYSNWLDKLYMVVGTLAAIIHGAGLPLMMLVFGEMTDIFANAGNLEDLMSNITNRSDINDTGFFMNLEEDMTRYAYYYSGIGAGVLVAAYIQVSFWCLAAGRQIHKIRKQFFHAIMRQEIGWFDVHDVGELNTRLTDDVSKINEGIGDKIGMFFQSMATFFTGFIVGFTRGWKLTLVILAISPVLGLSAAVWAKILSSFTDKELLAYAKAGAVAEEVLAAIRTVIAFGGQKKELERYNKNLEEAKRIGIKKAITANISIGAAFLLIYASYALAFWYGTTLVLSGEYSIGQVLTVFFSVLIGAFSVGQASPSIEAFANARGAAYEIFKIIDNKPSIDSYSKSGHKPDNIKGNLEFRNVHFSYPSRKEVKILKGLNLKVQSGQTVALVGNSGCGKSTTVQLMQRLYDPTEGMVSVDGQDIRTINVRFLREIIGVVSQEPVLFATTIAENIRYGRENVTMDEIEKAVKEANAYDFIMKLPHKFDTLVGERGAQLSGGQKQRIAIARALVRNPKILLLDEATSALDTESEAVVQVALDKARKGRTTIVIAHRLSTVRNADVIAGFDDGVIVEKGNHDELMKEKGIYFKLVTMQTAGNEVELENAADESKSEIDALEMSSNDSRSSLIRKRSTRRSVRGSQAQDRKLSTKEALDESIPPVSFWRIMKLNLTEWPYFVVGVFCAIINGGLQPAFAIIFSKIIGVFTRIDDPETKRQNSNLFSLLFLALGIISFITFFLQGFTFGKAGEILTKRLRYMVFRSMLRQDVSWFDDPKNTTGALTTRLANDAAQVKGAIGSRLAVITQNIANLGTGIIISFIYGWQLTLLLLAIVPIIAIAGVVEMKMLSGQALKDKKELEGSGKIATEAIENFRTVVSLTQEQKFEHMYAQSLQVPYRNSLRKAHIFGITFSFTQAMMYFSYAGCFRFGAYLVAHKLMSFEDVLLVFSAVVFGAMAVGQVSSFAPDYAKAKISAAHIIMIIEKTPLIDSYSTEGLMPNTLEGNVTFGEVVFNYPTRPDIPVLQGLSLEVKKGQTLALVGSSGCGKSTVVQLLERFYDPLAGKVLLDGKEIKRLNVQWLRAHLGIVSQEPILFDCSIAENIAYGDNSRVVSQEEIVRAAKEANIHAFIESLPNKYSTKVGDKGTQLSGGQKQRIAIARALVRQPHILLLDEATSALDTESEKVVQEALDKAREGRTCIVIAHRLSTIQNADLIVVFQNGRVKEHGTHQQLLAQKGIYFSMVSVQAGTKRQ
quantity: inhibition at 30 min, 1 μM (%)
Express your answer in %, writing the number without its unit.

[ask] Form field: reported inhibition at 30 min, 1 μM of NC(=O)[C@@H]1CCCCN1C(=O)c1cn(CC2CCCCC2)c2ccccc12 [18e]
[reply] 30

###

biological target: UniProtKB P34972; assay: CB2R cAMP determination after forskolin stimulation in transfected HEK-293T cells; format: cell-based; parameters: expressed in transfected cells; host or cells: HEK-293T, transient transfection (PEI); conditions: HEK-293T; normalized to maximal efficacious concentration of CP 55,940; read-out: CB2R Emax AMPc (converted)
quantity: Emax (%)
Express your answer in %, writing the number without its unit.

Worked examples follow.
> print(dat)
                                   molecule  unit  assayvalue
1  CCCCCn1nc(C(=O)N2CCCC[C@@H]2C(=O)OC)c2ccccc21 [16j]     %          53
2  NC(=O)[C@H]1CCCCN1C(=O)c1cn(CC2CCCCC2)c2ccccc12 [18f]     %          55
3  NC(=O)[C@@H]1CCCCN1C(=O)c1cn(CC2CCCCC2)c2ccccc12 [18e]     %          82
4  NC(=O)[C@H]1CCCCN1C(=O)c1nn(Cc2ccc(F)cc2)c2ccccc12 [18p]     %          58
5  CCCCCn1nc(C(=O)N2CCCC[C@H]2C(=O)OC)c2ccccc21 [16i]     %          64

Please examine the following record next.
[ask] Form field: reported Emax of NC(=O)[C@@H]1CCCCN1C(=O)c1nn(Cc2ccc(F)cc2)c2ccccc12 [18o]
[reply] 60
